experiment: Botryllamide G plasma pharmacokinetics in wild-type mice; format: in vivo; conditions: male, FVB, mouse, iv, 13.4 mg/kg
measured.parameter: half-life (h)
Provide the reading as a plain figure in h.

Query (compound): CO/C(=C\c1ccc(O)cc1)C(=O)N/C=C/c1cc(Br)c(O)c(Br)c1 [botryllamide G] ; field requested: half-life
4.6

---

test: Botryllamide G plasma pharmacokinetics in wild-type mice; assay type: in vivo; details: male, FVB, mouse, iv, 13.4 mg/kg
measured.parameter: AUC (ng·h/mL)
Provide the reading as a plain figure in ng·h/mL.

Query (compound): CO/C(=C\c1ccc(O)cc1)C(=O)N/C=C/c1cc(Br)c(O)c(Br)c1 [botryllamide G] ; field requested: AUC
2090

---

test: Lapatinib brain and plasma exposure in wild-type FVB mice; format: in vivo, mouse; settings: male, FVB, mouse, plasma, oral, 90 mg/kg
measured.parameter: AUC (ng·h/mL)
Provide the reading as a plain figure in ng·h/mL.

Query (compound): CS(=O)(=O)CCNCc1ccc(-c2ccc3ncnc(Nc4ccc(OCc5cccc(F)c5)c(Cl)c4)c3c2)o1 ; field requested: AUC
66400

---

assay: Lapatinib brain and plasma exposure in Mdr1a/Mdr1b; type: in vivo, mouse; conditions: male, FVB, mouse, brain, oral, 90 mg/kg
measured.parameter: AUC (ng·h/mL)
Provide the reading as a plain figure in ng·h/mL.

Query (molecule): CS(=O)(=O)CCNCc1ccc(-c2ccc3ncnc(Nc4ccc(OCc5cccc(F)c5)c(Cl)c4)c3c2)o1 [lapatinib] ; field requested: AUC
2060
